// reported koff for each item listed
- experimental target: T1, recombinant extracellular domain (ECD) of human TF, amino acid 1-219 of the mature chain, C-terminal His6-tag (human, UniProt P13726 33-251)
- T1 construct: expressed in a mammalian system; used for ELISA and Biacore; biotinylated by NHS-ester for the Fab ELISA; also called His6-TF-ECD1-219; HumanTF1-219
- protocol notes: Biacore
Report the value in s⁻¹ with no unit label.

- binder: "M1606 (antibody, V domains shown, complete MAb; FR4 is its own entry; also called H181/L3) VH: EVQLVQSGAEVKKPGESLRISCKGSGYTFIPHWIEWVRQMPGKGLEWMGDILPGSGWTNYSPSFQGHVTISADKSISTAYLQWSSLKASDTAMYYCARSGYYGNSGFAYWGQGTLVTVSS VL: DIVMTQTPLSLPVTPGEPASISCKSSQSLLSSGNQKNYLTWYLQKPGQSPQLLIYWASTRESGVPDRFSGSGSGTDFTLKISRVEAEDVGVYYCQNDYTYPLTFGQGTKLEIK"
  unit text: "s⁻¹"
  koff: "2.9e-05"
- binder: "M1604 (antibody, V domains shown, complete MAb; FR4 is its own entry; also called H138/L3) VH: EVQLVQSGAEVKKPGESLRISCKGSGYTFAPYWIEWVRQMPGKGLEWMGDILPGTGYTWYSPSFQGHVTISADKSISTAYLQWSSLKASDTAMYYCARSGYYGNSGFAYWGQGTLVTVSS VL: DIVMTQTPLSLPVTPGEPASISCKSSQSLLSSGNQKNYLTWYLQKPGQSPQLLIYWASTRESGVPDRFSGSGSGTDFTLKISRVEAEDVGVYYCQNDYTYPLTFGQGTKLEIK"
  unit text: "s⁻¹"
  koff: "2.2e-05"
- binder: "M61 (antibody, V domains shown, complete MAb; FR4 is its own entry; also called H22/L5) VH: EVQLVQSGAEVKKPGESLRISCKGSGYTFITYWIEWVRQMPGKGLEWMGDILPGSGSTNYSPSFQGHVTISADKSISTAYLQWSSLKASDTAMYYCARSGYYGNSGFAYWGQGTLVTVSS VL: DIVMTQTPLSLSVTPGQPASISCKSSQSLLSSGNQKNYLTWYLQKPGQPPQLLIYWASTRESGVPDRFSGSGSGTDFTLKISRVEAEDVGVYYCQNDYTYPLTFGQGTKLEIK"
  unit text: "s⁻¹"
  koff: "1.9e-05"
- binder: "M1584 (antibody, V domains shown, complete MAb; FR4 is its own entry; also called H173/L3) VH: EVQLVQSGAEVKKPGESLRISCKGSGYTFVTYWIEWVRQMPGKGLEWMGDILPGTGYTVYSPSFQGHVTISADKSISTAYLQWSSLKASDTAMYYCARSGYYGNSGFAYWGQGTLVTVSS VL: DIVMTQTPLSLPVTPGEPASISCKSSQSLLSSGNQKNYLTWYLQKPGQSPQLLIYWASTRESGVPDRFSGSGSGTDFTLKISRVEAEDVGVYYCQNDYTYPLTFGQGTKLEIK"
  unit text: "s⁻¹"
  koff: "5.6e-05"

Request the reported koff associated with M1611 (antibody, V domains shown, complete MAb; FR4 is its own entry; also called H128/L3) VH: EVQLVQSGAEVKKPGESLRISCKGSGYTFGPYWIEWVRQMPGKGLEWMGDILPGSGYTTYSPSFQGHVTISADKSISTAYLQWSSLKASDTAMYYCARSGYYGNSGFAYWGQGTLVTVSS VL: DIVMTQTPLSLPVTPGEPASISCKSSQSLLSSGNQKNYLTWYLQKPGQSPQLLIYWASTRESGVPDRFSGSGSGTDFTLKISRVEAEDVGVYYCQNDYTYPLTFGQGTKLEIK
5.9e-05

Origin of values: patent US20120237528A1
